Origin of the recorded values: paper PMC6449286

Assay: MK571 concentrations in plasma and kidneys (HPLC)
Assay type: in vivo, mice
Settings: C57BL/6J, mouse, kidney, intraperitoneal, 300 mg/kg, Kidney unbound concentration of MK571, mice, from rat tissue unbound fraction of (R)-enantiomer
READOUT TYPE: concentration at 120 min (µM)
Answers are plain numbers, in µM.

Find the recorded concentration at 120 min belonging to CN(C)C(=O)CCSC(SCCC(=O)O)c1cccc(/C=C/c2ccc3ccc(Cl)cc3n2)c1 (stereo not shown) [MK571] and report it.
98

###

Experiment: MK571 concentrations in plasma and kidneys (HPLC)
Type: in vivo, mice
Settings: mouse, kidney, intraperitoneal, 300 mg/kg, MK571 concentration in kidneys, wild-type mice, approximately 120 min after 300 mg/kg i.p.
READOUT TYPE: concentration at 120 min (µM)
One number for each entry, in µM.

Recorded concentration at 120 min of CN(C)C(=O)CCSC(SCCC(=O)O)c1cccc(/C=C/c2ccc3ccc(Cl)cc3n2)c1 (stereo not shown) , please.
544
